ASSAY REMARKS: thallium flux activation in parental CHO cells, counter-screen for KCNQ1 potentiator project (AID 493006);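 as to activation: fluorescence ratio of max minus min over baseline after K+ and Tl+ depolarization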
STUDY CONDITIONS: parental CHO-K1 cells, FluxOR thallium flux, at 10 µM
The source made the active and inactive calls.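 The calls were made as follows: active = duplicate-averaged activation above buffer control mean plus 5 SD of those controls; inactive = the rest.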
Labels: active, inactive

[[record]]
compound = "O=C(C1CCN(Cc2ccccc2)CC1)N1CCN(C/C=C/c2ccccc2)CC1"
class_assignment = "inactive"

[[record]]
compound = "O=C(NN=C1CCCC1)c1n[nH]c2c1CCC2"
class_assignment = "active"

[[record]]
compound = "CN(C)c1ccc(NC(=O)COC(=O)c2cc(Cl)ccc2[N+](=O)[O-])cc1"
class_assignment = "inactive"

[[record]]
compound = "CC(C)Cc1ccc(C(C)C(=O)Nc2ccc(O)cc2)cc1 (stereo unspecified)"
class_assignment = "inactive"

[[record]]
compound = "Cc1ccc(-c2nc3ccccc3c(=O)n2O)cc1"
class_assignment = "active"

[[record]]
compound = "O=S(=O)(c1cc(F)cc(F)c1)N1CCN(c2ncccn2)CC1"
class_assignment = "inactive"

[[record]]
compound = "CCCSC(=S)c1c(C)[nH]n(-c2ccccc2)c1=O"
class_assignment = "active"

[[record]]
compound = "CCN(c1ccccc1)S(=O)(=O)c1ccc(OC)c(OC)c1"
class_assignment = "active"

[[record]]
compound = "CCN=C1SC(CC(=O)Nc2ccccc2OCC)C(=O)N1CC (stereo unspecified)"
class_assignment = "inactive"

[[record]]
compound = "Cc1ccc(C)c(N2CCN(C(=O)CCS(=O)(=O)c3ccc4c(c3)NC(=O)CO4)CC2)c1"
class_assignment = "inactive"

[[record]]
compound = "COc1ccccc1C(=O)NNC(=O)C(=O)NC(C)(C)C"
class_assignment = "active"

